assayTarget: Human HER3, endogenous, on human cancer cell lines (SK-Br-3, MCF7, BT-474) (human, UniProt P21860 20-1342)
Sequence (P21860 20-1342): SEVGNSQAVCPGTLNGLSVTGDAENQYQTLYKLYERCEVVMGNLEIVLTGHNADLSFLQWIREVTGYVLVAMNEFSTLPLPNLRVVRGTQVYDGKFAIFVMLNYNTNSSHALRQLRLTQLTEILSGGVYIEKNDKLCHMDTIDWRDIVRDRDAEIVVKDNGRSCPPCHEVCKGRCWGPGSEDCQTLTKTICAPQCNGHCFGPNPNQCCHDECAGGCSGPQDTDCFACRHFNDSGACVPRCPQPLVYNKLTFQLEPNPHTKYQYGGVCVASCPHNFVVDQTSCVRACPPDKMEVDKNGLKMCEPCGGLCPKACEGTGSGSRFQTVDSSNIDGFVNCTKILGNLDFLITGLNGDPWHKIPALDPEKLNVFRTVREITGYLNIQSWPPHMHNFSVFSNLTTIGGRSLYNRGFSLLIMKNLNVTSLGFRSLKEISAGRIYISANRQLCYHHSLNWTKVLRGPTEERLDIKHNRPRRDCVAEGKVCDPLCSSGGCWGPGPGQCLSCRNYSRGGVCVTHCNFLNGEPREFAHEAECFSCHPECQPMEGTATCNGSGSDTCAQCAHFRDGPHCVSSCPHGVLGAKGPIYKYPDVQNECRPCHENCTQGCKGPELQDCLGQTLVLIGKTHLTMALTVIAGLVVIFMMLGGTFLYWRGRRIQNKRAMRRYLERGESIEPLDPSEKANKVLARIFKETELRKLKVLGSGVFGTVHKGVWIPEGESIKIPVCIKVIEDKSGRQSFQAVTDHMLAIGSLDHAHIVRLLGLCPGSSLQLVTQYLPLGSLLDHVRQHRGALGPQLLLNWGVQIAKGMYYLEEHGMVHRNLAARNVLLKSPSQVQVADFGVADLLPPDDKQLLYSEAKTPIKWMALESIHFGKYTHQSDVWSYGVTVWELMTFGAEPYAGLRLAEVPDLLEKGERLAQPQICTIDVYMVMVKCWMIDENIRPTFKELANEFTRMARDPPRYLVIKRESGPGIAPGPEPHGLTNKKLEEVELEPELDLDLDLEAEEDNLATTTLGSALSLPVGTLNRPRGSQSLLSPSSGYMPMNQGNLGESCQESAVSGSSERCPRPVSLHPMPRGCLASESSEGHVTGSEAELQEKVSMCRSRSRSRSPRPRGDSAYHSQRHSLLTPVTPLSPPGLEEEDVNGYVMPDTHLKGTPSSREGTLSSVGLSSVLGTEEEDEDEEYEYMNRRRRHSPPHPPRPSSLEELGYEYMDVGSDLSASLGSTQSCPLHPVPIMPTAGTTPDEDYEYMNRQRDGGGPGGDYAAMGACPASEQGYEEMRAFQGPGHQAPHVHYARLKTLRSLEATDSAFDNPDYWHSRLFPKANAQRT
protocolText: cell-based or functional assay
measurementKind: SK-Br-3 proliferation IC50 (nM)
Dear colleague, please return just the value in nM, with no unit written.

Please review the entries below; each comes with its answer.
INSERT INTO measurements (binder, measurementunit, readoutvalue) VALUES
  ('MOR13869 (antibody, human IgG1, kappa, V domains shown, tested as IgG) VH: QVQLVQSGAEVKKPGESLKISCKGSGYSFSNYWIAWVRQMPGKGLEWMGIIYPGGSDTIYSPSFQGQVTISADKSISTAYLQWSSLKASDTAMYYCARVHIIQPPSAWSYNAMDVWGQGTLVTVSS VL: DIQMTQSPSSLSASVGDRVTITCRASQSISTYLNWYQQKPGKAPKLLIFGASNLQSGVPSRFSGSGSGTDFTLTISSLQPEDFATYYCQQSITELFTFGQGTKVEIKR', 'nM', 5.41),
  ('MOR13752 (antibody, human IgG1, kappa, V domains shown, tested as IgG) VH: QVQLVQSGAEVKKPGESLKISCKGSGYSFTNYWVAWVRQMPGKGLEWMGIIYPGGSDTIYSPSFQGQVTISADKSISTAYLQWSSLKASDTAMYYCARVHIIQPPSAWSYNAMDVWGQGTLVTVSS VL: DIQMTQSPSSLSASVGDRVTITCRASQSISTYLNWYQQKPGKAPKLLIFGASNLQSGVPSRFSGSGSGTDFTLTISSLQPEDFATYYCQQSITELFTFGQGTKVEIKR', 'nM', 3);

Please list SK-Br-3 proliferation IC50 recorded for the binder MOR13870 (antibody, human IgG1, kappa, V domains shown, tested as IgG) VH: QVQLVQSGAEVKKPGESLKISCKGSGYSFSNYWIAWVRQMPGKGLEWMGIIYPGTSDTIYSPSFQGQVTISADKSISTAYLQWSSLKASDTAMYYCARVHIIQPPSAWSYNAMDVWGQGTLVTVSS VL: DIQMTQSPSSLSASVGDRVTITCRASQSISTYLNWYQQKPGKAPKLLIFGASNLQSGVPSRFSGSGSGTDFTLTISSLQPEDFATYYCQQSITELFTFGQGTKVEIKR
1.14
